Test: Selectivity ratio of CC50 for mouse J774A1 cells to IC50 for promastigote stage of Leishmania amazonensis WHOM/BR/75/JOSEFA
Format: ADME, cell-based, J774.A1
Details: read-out: Ratio CC50/IC50
assay readout: selectivity ratio
Answers are plain numbers.

# per-item lookup of selectivity ratio; items listed below
1. CCCCNc1nc2ccc(OC)cc2nc1NCCCC
2. CS/C(=C/[N+](=O)[O-])Nc1ccc(N(C)C)cc1
3. COc1ccc2nc(Nc3ccccc3)c(Nc3ccccc3)nc2c1
4. CS/C(=C/[N+](=O)[O-])NCCCCO
5. COc1ccc2nc(NC3CCCCC3)c([S+](C)[O-])nc2c1 (stereo not drawn)
6. CS(=O)(=O)c1nc2ccc(Br)cc2nc1NCCO
7. CSc1nc2ccc(Cl)cc2nc1Cl

[4.3, 18.9, 4.4, 11.1, 8, 40.3, 22.1]

# per-item lookup of selectivity ratio; items listed below
1. COc1ccc2nc(NCCO)c(S(C)(=O)=O)nc2c1
2. CCCCNc1nc2cc(Cl)ccc2nc1S(C)(=O)=O
3. CCCCNc1nc2cc(Cl)ccc2nc1SC
4. CCCCNc1nc2cc(OC)ccc2nc1SC
5. Oc1ccc(-c2nc3ccccc3nc2-c2ccc(OCCN3CCCCC3)cc2)cc1
6. C[S+]([O-])c1nc2ccc(Cl)cc2nc1Cl (stereo not drawn)

1. 13.3
2. 50.6
3. 4.6
4. 3.5
5. 8.2
6. 108
